The values you see were collected from PubChem BioAssay (NCATS).

Assay: qHTS of pediatric cancer cell lines to identify multiple opportunities for drug repurposing: Primary screen for TC32 cells (AID 1347089); further: nearly all actives have a fitted effect of over 60% in size; further: potency means the concentration at half of the fitted maximal effect
Conditions: TC32 Ewing sarcoma viability, CellTiter-Glo luminescence, 48 h; series mostly up to 45.8 µM
Inconclusive results are not listed. Calls of active or inactive are those of the source. The call rests on the fitted dose curve; in most records, active means well fitted cell-killing curve with a large enough effect; inconclusive means small, poorly fitted or top-dose-only effect; inactive means flat fitted curve, though single readings scatter.
PROPERTY_MEASURED: Potency

// known answers, use as guide
CC(C)(CO)[C@@H](O)C(=O)NCCC(=O)O :: inactive
CCNC(=O)[C@H]1O[C@@H](n2cnc3c(N)nc(NCCc4ccc(CCC(=O)O)cc4)nc32)[C@H](O)[C@H]1O :: inactive
COC(=O)[C@H](c1ccccc1Cl)N1CCc2sccc2C1 :: inactive
CC[C@H](C)n1cc(C)c2c(C(=O)NCc3c(C)cc(C)[nH]c3=O)cc(-c3ccc(N4CCNCC4)nc3)cc21 :: inactive
CN1CCN(c2ncc(-c3cc(Cl)cc(Cl)c3Cl)c(N)n2)CC1 :: inactive

Required: Potency, one value per molecule below.
1. C[C@@H]1O[C@@H](O[C@H]2CC[C@@]3(C)[C@H](CC[C@@H]4[C@H]3C[C@@H](O)[C@]3(C)[C@@H](C5=CC(=O)OC5)CC[C@]43O)C2)C[C@H](O)[C@@H]1O[C@H]1C[C@H](O)[C@H](O[C@H]2C[C@H](O)[C@@H](O)[C@@H](C)O2)[C@H](C)O1 (stereo in doubt)
2. CC[C@H](CC#N)OC(=O)N[C@@H](C)c1cccc(NC(=O)Nc2ccc(-c3cnco3)c(OC)c2)c1
3. COc1ccc(-c2ccc3ncc4c(c3c2)n(-c2ccc(N3CCNCC3)c(C(F)(F)F)c2)c(=O)n4C)cn1
4. CCOC(=O)N1c2ccc(C(F)(F)F)cc2[C@@H](N(Cc2cc(C(F)(F)F)cc(C(F)(F)F)c2)C(=O)OC)C[C@H]1CC
5. CC[C@]1(O)C[C@H]2CN(CCC3=c4ccccc4=N[C]3[C@@](C(=O)OC)(c3cc4c(cc3OC)N(C)[C@H]3[C@@](O)(C(N)=O)[C@H](O)[C@]5(CC)C=CCN6CC[C@]43[C@@H]65)C2)C1
6. Cc1nc2c([nH]1)CCN(C(=O)c1ccc(NC(=O)c3ccccc3-c3ccccc3)cc1)c1ccccc1-2

output:
1. 380 nM (active)
2. 1040 nM (active)
3. 16.5 nM (active)
4. inactive
5. 58.7 nM (active)
6. inactive

Hi, could you look up Potency for each item in my list?
1. CN1CC(=O)N2C(Cc3c([nH]c4ccccc34)[C@H]2c2ccc3c(c2)OCO3)C1=O (some centres not stated)
2. O=C(O)CCC=CCC[C@@H]1[C@H](N2CCCCC2)[C@@H](O)C[C@@H]1OCc1ccc(-c2ccccc2)cc1
3. CON(C)C(=O)N1N=C(c2cc(F)ccc2F)S[C@]1(CCCN)c1ccccc1
4. COc1c(C)c2c(c(O)c1CC=C(C)CCC(=O)OCCN1CCOCC1)C(=O)OC2

output:
inactive
inactive
4.7 nM (active)
4660 nM (active)

Dear colleague, could you please provide Potency for the molecules listed below?
1. CO[C@H]1/C=C\O[C@@]2(C)Oc3c(C)c(O)c4c(O)c(c5c(nc6cc(C)ccn65)c4c3C2=O)NC(=O)C(C)=CC=C[C@H](C)[C@H](O)[C@@H](C)[C@@H](O)[C@@H](C)[C@H](OC(C)=O)[C@H]1C
2. OC1CCC(Nc2ncc3nc(Nc4c(F)cc(F)cc4F)n([C@@H]4CCOC4)c3n2)CC1 (some centres not stated)

output:
1. inactive
2. inactive
